- subject.of.test: T1, human GFRAL (analyte in Biacore assays) (human, UniProt Q6UXV0 19-351, limits assumed)
- T1 construct: injected in solution over captured antibody; also called hGFRAL
- T1 sequence: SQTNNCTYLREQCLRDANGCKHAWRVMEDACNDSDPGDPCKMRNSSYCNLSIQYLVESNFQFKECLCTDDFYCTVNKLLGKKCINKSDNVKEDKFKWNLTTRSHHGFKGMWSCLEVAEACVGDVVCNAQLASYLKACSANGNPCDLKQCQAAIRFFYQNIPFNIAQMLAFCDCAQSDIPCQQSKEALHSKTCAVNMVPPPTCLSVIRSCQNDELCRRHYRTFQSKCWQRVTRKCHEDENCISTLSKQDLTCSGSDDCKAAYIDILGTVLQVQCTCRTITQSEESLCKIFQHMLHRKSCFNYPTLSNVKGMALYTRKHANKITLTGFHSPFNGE
- test.description: Biacore SPR, antibody captured, GFRAL injected
Listed binders paired with reported koff
Provide the reading as a plain figure in s⁻¹.

Examples with answers:
antibody designated 22N5 (antibody, V domains shown, mouse hybridoma monoclonal) VH: QNQLVQSGPELKKPGEIVKISCKTSGYTFTDYSMHWVKKTPGKGFKWMGWINTETGEPTYADDFKGRFAFSLETSANTAHLQITNLKNEDTATYFCVKGTLNYWGQGTTLTVSS VL: DIKMTQSPSSMYASLGERVTITCKASQDIKSYLNWFQQKPGKSPKTLIYRTKRLVDGVPSRFSGSGSGQDYSLTVSSLEYDDVGIYYCLQYVEFPLTFGDGTKLELK = 0.000132
antibody designated 1A3 (antibody, V domains shown, mouse hybridoma monoclonal) VH: EVQLQQSGPELVKPGASVKISCKASGFTFTDYYMNWVKQSHGKSLEWIGDIIPNNGVTSYNQKFKGKATLTVDKSSSTAYMELRSLTSEDSAVYYCAREWLLRGMDYWGQGTSVTVSS VL: DIVMTQAAFSNPVTLGTSASISCRSSKSLLHSNGITYLYWYLQKPGQSPQLLIYQMSNLASGVPDRFSSSGSGTDFTLRISRVEAEDVGVYYCAQHLELTWTFGGGTKLEIK = 7.57e-05
antibody designated 2A9 (antibody, V domains shown, mouse hybridoma monoclonal) VH: EVKLVESGGGLVKPGGSLKLSCAASGFTFSTYAMSWVRQTPEKRLEWVASITSGGTTYYTDSVKGRFTISRDNARNILYLQMSSLRSEDTAMYYCARDGNFYYYGMDYWGQGTSVTVSS VL: DIVMTQSQKFMSTSVGDRVSITCKASQNVGTAVAWYQQKPGQSPKILIYSASNRFTGVPDRFTGSGSGTDFTLTISNMQSEDLADYFCQQYSSYFTFGGGTKLELK = 0.000153
antibody designated P1B6 (antibody, V domains shown, mouse hybridoma monoclonal) VH: EVQLQQSGPELVKPGASVKMSCKASGYTFTDYYMNWVKQTHGKSLEWIGDINPNNGGPIYNQKFKGKATLTVDKSSSTAYMELRSLTSEDSAVYYCARSDSAWFTYWGQGTLVTVSA VL: QIVLTQSPAIMSASPGEKVTMTCSASSSVSYMYWYQQKPGSSPRLLIYDTSNLASGVPVRFSGSGSGTFYSITISRMEAEDAATYYCQQWNSYPPTFGGGTKLEIK = 9.72e-05
antibody designated 6N16 (antibody, V domains shown, mouse hybridoma monoclonal) VH: QVQLQQSGSELVKPGTSMKLSCKASGYTFTSYNINWVRLRPEQGLEWIGWIFPGDDSIKYNENFRGKATLTTDKSSSTAYMHLSRLTSDDSAVYFCARSGIFYGNNFAYWGQGTLVTVSA VL: DVVMTQAPLILSVTIGQPASISCKSSQSLLDGDGETYLSWLLQRPGQSPKRLIYLVSKLDSGVPDRFTGSGSGTDFTLKISRVEAEDLGVYYCCQSTHFPLTFGAGTKLELK = 9.93e-05
antibody designated 2B11 (antibody, V domains shown, mouse hybridoma monoclonal) VH: DVQLQESGPGLVKPSQSLSLTCSVTGYSITSGYYWNWIRQFPGNKLEWMGHIANDGSNYYNPFLKHRVSITRDTSKNQFFLKLNSVTIQDTATYYCARGGSYFDYVDYWGQGTTLTVSS VL: DIQMTQTTSSLSASLGDRVTINCRASQDISNYLNWYQQKPDGTVKLLIYYTSRLHSGVPSRFSGSGSGTDYSLTITNLEQEDIATYFCQQGNTLPFTFGSGTKLEIK = 8.45e-05

Q. Check the records and state koff for antibody designated P8G4 (antibody, V domains shown, mouse hybridoma monoclonal) VH: QVQLKQSGPGLVQPSQSLSITCTVSGFSLTSYGVHWVRQSPGKGLDWLGVLWSGGSTDYNAAFISRLSISKDNSKSQVFFKMNSLQADDTAIYYCARNFGDYWGQGTSVTVSS VL: QIVLTQSPAIMSASPGEKVTMTCSASSRVSYMHWYQQKSGTSPKRWIYDTSKLASGVPARFSGSGSGTSYSLTISSMEAEDAATYYCQQWNNNPPTFGAGTTLELK
A. 0.000276

Q. Check the records and state koff for antibody designated 8C10 (antibody, V domains shown, mouse hybridoma monoclonal) VH: QVQLQQSGVELARPGAAVKLSCKASGYTFANYGLTWVKQRTGQGLEWIGEIYPGSGHTHYNEDFKGKATLTADRSSSTAYMELRSLTSEDSAVYFCARRIQLLLPVGGFVYWGQGTLVTVSA VL: DFVLTQSPATLSVTPGDSVSLSCRASQSISNNLHWYQQKSHESPRLLIKYASQSISGIPSRFSGSGSGTDFTLSINSVETEDFGVYFCQQSNSWPHTFGGGTKLEIK
A. 7.2e-05
